Reported values of Plant response rating, Barley, Winter for individual entries
tested on: winter barley (Hordeum vulgare); assay: Test C pre-/postemergence plant response; type: in vivo; conditions: Preemergence, 8 g ai/ha; scale 0 to 100 (0 no effect, 100 complete control)
Number only, please.

# molecule, value-reported
measured = [
    ("CCc1c(C)c(-c2ccc(Cl)cc2)nn1-c1c(O)cnn(C)c1=O [Compound 26]", 0),
]

# input Under winter barley (Hordeum vulgare): report Plant response rating, Barley, Winter of Cc1cc(-c2ccc(Cl)cc2)nn1-c1c(OC(=O)C(C)C)cnn(C)c1=O [Compound 34] .
# output 0

# input Name the value of Plant response rating, Barley, Winter reported for Cc1cc(-c2ccc(Cl)cc2)nn1-c1c(OS(=O)(=O)c2ccccc2[N+](=O)[O-])cnn(C)c1=O [Compound 51] when tested on winter barley (Hordeum vulgare).
# output 0

# input With winter barley (Hordeum vulgare) as the test system, provide measured Plant response rating, Barley, Winter for this molecule: CCc1cc(-c2ccc(C(F)(F)F)cc2)nn1-c1c(O)cnn(C)c1=O [Compound 11]
# output 20

# input Write down the reported Plant response rating, Barley, Winter (system: winter barley (Hordeum vulgare)) of Cn1ncc(O)c(-c2nn(-c3ccc(Cl)cc3)cc2Cl)c1=O [Compound 28]
# output 0

# input Enter recorded Plant response rating, Barley, Winter with winter barley (Hordeum vulgare) for CCc1cc(-c2ccc(Cl)cc2)nn1-c1c(OC(=O)OC(C)C)cnn(C)c1=O [Compound 41] here.
# output 10

###

test system: dallisgrass (Paspalum dilatatum); test: Test E pre-/postemergence plant response; type: in vivo; details: 16 g ai/ha, Preemergence, scale 0 to 100
property-measured: Plant response rating, Dallisgrass
No unit in the answer, please; the number alone is enough.

# smiles-notation, Plant response rating, Dallisgrass
measured = [
    ("Cc1cc(-c2ccc(Cl)cc2)nn1-c1c(OC(=O)C(C)C)cnn(C)c1=O", 50),
    ("Cn1ncc(O)c(-c2nn(-c3ccc(Cl)cc3)cc2Br)c1=O", 15),
    ("CCc1cc(-c2ccc(C(F)(F)F)cc2)nn1-c1c(OS(C)(=O)=O)cnn(C)c1=O", 90),
]

Lab note: next molecule to report on.
# input Given the molecule CCc1cc(-c2ccc(Cl)cc2)nn1-c1c(OS(C)(=O)=O)cnn(C)c1=O , write its reported Plant response rating, Dallisgrass.
# output 98

###

system: surinam grass (Brachiaria decumbens); assay: Test B pre-/postemergence plant response; assay type: in vivo; conditions: Postemergence, 62 g ai/ha; scale 0 to 100, 0 no effect, 100 complete control
property-measured: Plant response rating, Surinam Grass
Lab note: jot down the number only; don't add units.

Some solved entries appear below for comparison.
# smiles-notation, property-measured, value-reported
rows = [
    ("Cn1ncc(O)c(-c2nn(-c3ccc(Cl)cc3)cc2Cl)c1=O", "Plant response rating, Surinam Grass", 90),
    ("COCc1cc(-c2ccc(Br)cc2)nn1-c1c(O)cnn(C)c1=O", "Plant response rating, Surinam Grass", 80),
]

# input Complete the entry with Plant response rating, Surinam Grass for Cc1cc(-c2ccc(Cl)cc2)nn1-c1c(OC(=O)OCC(C)C)cnn(C)c1=O
# output 100

# input Please give measured Plant response rating, Surinam Grass of the following entry: Cc1cc(-c2ccc(Cl)cc2)nn1-c1c(OC(=O)c2ccccc2)cnn(C)c1=O
# output 100

# input Provide only the value of recorded Plant response rating, Surinam Grass for Cc1nn(C)c(=O)c(-n2nc(-c3ccc(Br)cc3)cc2C)c1O
# output 100
